All values here come from patent US20170240595.

molecular target: hMC4-R (human, UniProt P32245); experiment: competition
Sequence (P32245 whole entry): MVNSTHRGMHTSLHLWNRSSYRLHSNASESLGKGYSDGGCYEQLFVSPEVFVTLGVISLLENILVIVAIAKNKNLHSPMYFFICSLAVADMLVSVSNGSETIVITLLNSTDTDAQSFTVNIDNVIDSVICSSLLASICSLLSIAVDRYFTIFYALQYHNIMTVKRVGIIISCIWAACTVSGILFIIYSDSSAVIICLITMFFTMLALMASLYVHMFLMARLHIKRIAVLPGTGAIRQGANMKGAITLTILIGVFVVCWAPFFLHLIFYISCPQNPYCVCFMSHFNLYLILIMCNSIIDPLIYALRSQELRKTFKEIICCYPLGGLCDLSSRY
pKi: −log10 of the molar value. Bridges are numbered along the chain shown (N, C = ends). Where no end group is shown, it is not given here. [ ]: non-standard residue; d: D form. Bip = N[C@@H](Cc1ccc(-c2ccccc2)cc1)C(=O)O; Nle = CCCC[C@H](N)C(=O)O; Bal = not defined here; βAla = NCCC(=O)O
Give YES when the value for pKi is at least 8. Give NO when it is less.

[[record]]
binder = "[dF]CH[dF]R[Bip][βAla][dC]T-NH2 (disulfide 2-8 (inferred)) [D-Phe-c(Cys-His-D-Phe-Arg-Bip-β-Ala-D-Cys)-Thr-NH2]"
assigned_category = "NO"


Q: Check the entry Ac-[Nle]D[dA]H[dF]R[Bal]AK-NH2 (lactam 2-9; reading uncertain) [Ac-Nle-c(Asp-D-Ala-His-D-Phe-Arg-Bal-Ala-Lys)-NH2] : does pKi equal or exceed 8?
Result: NO

Q: For this binder, is measured pKi 8 or higher? Ac-[Nle]D[dA]H[dF]R[Bal]K-NH2 (lactam 2-8; reading uncertain) [Ac-Nle-c(Asp-D-Ala-His-D-Phe-Arg-Bal-Lys)-NH2]
Result: NO

Q: pKi >= 8 for Ac-[Nle]C[dA]H[dF]RWGC-NH2 (disulfide 2-9; SMILES CCCC[C@H](NC(C)=O)C(=O)N[C@H]1CSSC[C@@H](C(N)=O)NC(=O)CNC(=O)[C@H](Cc2c[nH]c3ccccc23)NC(=O)[C@H](CCCNC(=N)N)NC(=O)[C@@H](Cc2ccccc2)NC(=O)[C@H](Cc2c[nH]cn2)NC(=O)[C@@H](C)NC1=O) [Ac-Nle-c(Cys-D-Ala-His-D-Phe-Arg-Trp-Gly-Cys)-NH2] ?
Result: YES

Q: Would you say Ac-[Nle]D[dA]H[dF]RWK-NH2 (lactam 2-8; SMILES CCCC[C@H](NC(C)=O)C(=O)N[C@H]1CC(=O)NCCCC[C@@H](C(N)=O)NC(=O)[C@H](Cc2c[nH]c3ccccc23)NC(=O)[C@H](CCCNC(=N)N)NC(=O)[C@@H](Cc2ccccc2)NC(=O)[C@H](Cc2c[nH]cn2)NC(=O)[C@@H](C)NC1=O) [Ac-Nle-c(Asp-D-Ala-His-D-Phe-Arg-Trp-Lys)-NH2] shows pKi at minimum 8?
Result: YES
